Data origin, for the record: the OPERA property sets (Mansouri et al. 2018)

Classify on melting point using c1 (below 4 °C), c2 (4 °C to below 90 °C), c3 (90 °C or more)

Problem: Place this compound in its band: `COP(=S)(OC)Oc1ccc([N+](=O)[O-])c(Cl)c1`
Result: c2

Problem: `COc1ccccc1F` ?
Result: c1

Problem: Also check `N#CCCCCCC#N`
Result: c1

Problem: And the next one, `CCC1(CCC(C)C)C(=O)NC(=O)NC1=O` ?
Result: c3

Problem: Consider next the compound `COc1c2c(cc3oc(=O)ccc13)OC(C)(C)C=C2` in the same way.
Result: c3

Problem: Also `CCN1CCOCC1` , if possible.
Result: c1

Problem: Field entry: `O=Cc1ccc(O)cc1`
Result: c3

Problem: How about `N#CCCCC#N` ?
Result: c1

Problem: Ok, now `NCc1ccncc1`
Result: c1

Problem: Moving on to the next compound: `CC(=O)Oc1c(C(C)(C)C)cc([N+](=O)[O-])c(C)c1[N+](=O)[O-]`
Result: c2

Problem: And for `CCCCCCCCCCOC(=O)c1ccccc1C(=O)OCCCCCC` ?
Result: c1

Problem: Same question for `O=C1CCCc2ccccc21` please.
Result: c2

Problem: Okay, and CCCC(C)C(=O)Nc1ccc(C)c(Cl)c1 (stereo unspecified) ?
Result: c2

Problem: And `O=C(Nc1ccccc1)c1ccccc1I` ?
Result: c3

Problem: How about `CC(C)C[C@H](N)C(=O)O` ?
Result: c3

Problem: // repeat for `COc1cc(C(C)=O)ccc1O` and report
Result: c3

Problem: Try this compound too: `CCC[C@@H](C)S`
Result: c1

Problem: Queued: `Cc1ccc(N=C=O)cc1N=C=O`
Result: c2

Problem: Next compound: `N#Cc1cc(Br)c(O)c(Br)c1`
Result: c3

Problem: Consider next the compound `CCCCCl` in the same way.
Result: c1

Problem: `COc1cccc2c1C(=O)c1c(O)c3c(c(O)c1C2=O)C[C@@](O)(C(C)=O)C[C@@H]3O[C@H]1C[C@H](N)[C@H](O)[C@H](C)O1` ?
Result: c3

Problem: Same question for `Oc1ccc(C2CCCC2)cc1` please.
Result: c2

Problem: Moving on to `Oc1ccc(Cc2ccccc2)cc1`
Result: c2

Problem: Try this compound too: `CN(C)c1ccc(C(O)(c2ccccc2)c2ccc(N(C)C)cc2)cc1`
Result: c3

Problem: Same again, this time with `CCNCC.Cl`
Result: c3

Problem: Same question, `CCc1ssc(=O)c1-c1ccccc1` this time
Result: c2

Problem: Record: c1ccc(OCC2CO2)cc1 (stereo unspecified)
Result: c1

Problem: # iterate: `Ic1cccc(I)c1`
Result: c2

Problem: Same thing, different compound: `FC(F)(F)C(F)(F)C(F)(C(F)(F)F)C(F)(F)C(F)(F)F`
Result: c1

Problem: Same for `CC(C)c1cccc2ccccc12`
Result: c1
